Sourced from ChEMBL document CHEMBL3991601

# Target Under Test: Non-receptor tyrosine-protein kinase TNK1 (Homo sapiens, UniProt Q13470); further: in the data inactive means no Kd found up to 30 µM
# Sequence (Q13470 whole entry): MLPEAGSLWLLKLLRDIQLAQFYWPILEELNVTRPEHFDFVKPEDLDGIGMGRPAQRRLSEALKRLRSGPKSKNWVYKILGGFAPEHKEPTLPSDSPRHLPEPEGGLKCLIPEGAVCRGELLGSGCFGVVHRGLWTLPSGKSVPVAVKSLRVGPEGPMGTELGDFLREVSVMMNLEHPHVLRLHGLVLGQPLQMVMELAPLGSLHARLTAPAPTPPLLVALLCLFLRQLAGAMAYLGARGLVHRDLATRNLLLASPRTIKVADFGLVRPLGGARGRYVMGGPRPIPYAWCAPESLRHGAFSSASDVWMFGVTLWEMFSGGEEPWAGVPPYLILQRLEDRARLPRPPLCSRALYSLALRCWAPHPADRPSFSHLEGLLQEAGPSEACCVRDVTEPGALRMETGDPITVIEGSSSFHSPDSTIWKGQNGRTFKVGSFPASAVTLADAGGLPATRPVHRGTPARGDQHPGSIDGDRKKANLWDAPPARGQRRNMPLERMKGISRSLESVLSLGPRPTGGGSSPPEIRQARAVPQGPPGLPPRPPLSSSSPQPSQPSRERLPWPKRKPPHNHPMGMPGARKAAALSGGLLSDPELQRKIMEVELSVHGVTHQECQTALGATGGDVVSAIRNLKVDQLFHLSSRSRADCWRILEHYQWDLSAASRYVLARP
Activity calls are given as the source filed them.
Would you mind answering with one of these outcomes? active, inactive

Examples with answers:
[
  {
    "Molecule Smiles": "CNS(=O)(=O)Nc1nccc(Cc2c(C)c3ccc(Oc4ncccn4)cc3oc2=O)c1F",
    "Target Under Test": "Non-receptor tyrosine-protein kinase TNK1 (Homo sapiens, UniProt Q13470)",
    "Cat": "inactive"
  },
  {
    "Molecule Smiles": "CCCS(=O)(=O)Nc1ccc(F)c(C(=O)c2c[nH]c3ncc(-c4ccc(Cl)cc4)cc23)c1F",
    "Target Under Test": "Non-receptor tyrosine-protein kinase TNK1 (Homo sapiens, UniProt Q13470)",
    "Cat": "inactive"
  },
  {
    "Molecule Smiles": "CC(C)Nc1cc(-c2c[nH]c(C(=O)N[C@H](CO)c3cccc(Cl)c3)c2)c(Cl)cn1",
    "Target Under Test": "Non-receptor tyrosine-protein kinase TNK1 (Homo sapiens, UniProt Q13470)",
    "Cat": "inactive"
  },
  {
    "Molecule Smiles": "COCCNCc1ccc(-c2cc3nccc(Oc4ccc(NC(=S)NC(=O)Cc5ccc(F)cc5)cc4F)c3s2)nc1",
    "Target Under Test": "Non-receptor tyrosine-protein kinase TNK1 (Homo sapiens, UniProt Q13470)",
    "Cat": "active"
  },
  {
    "Molecule Smiles": "CCN1CCN(Cc2ccc(-c3cc4c(N[C@H](C)c5ccccc5)ncnc4[nH]3)cc2)CC1",
    "Target Under Test": "Non-receptor tyrosine-protein kinase TNK1 (Homo sapiens, UniProt Q13470)",
    "Cat": "inactive"
  }
]

// query Called result for Cc1cc(-c2cc(O)ccc2Cl)cc2nnc(Nc3ccc(OCCN4CCCC4)cc3)nc12
// result inactive

// query Called result for COc1cc(CCc2cc(NC(=O)c3ccc(N4C[C@@H](C)N[C@@H](C)C4)cc3)n[nH]2)cc(OC)c1
// result inactive

// query Called result for COc1ccc(-c2ccc3c(N4CCOC[C@@H]4C)nc(N4CCOC[C@@H]4C)nc3n2)cc1CO
// result inactive
